Cited source: ChEMBL document CHEMBL3885861

Species on record: Rattus norvegicus
test.name: Open TG-GATES - Regimen: Daily Repeat
Type: toxicity, organism-based, Sprague-Dawley
Design: regimen Daily Repeat, gender Male, age 6 weeks
cond: in vivo, po, 300 mg/kg, […], tissue Plasma, route gavage, dose level Middle, time 14 day
measured.metric: IP (mg/dL)
Answers are plain numbers, in mg/dL.

Some compounds with recorded IP:
**Query** Entry CCOc1ccc(NC(=O)CC(C)O)cc1 (stereo not given) has what IP?
**Result** 6.9

**Query** For CCOC(=O)CCC(=O)O[C@H]1[C@H](O[C@@H]2[C@@H](C)[C@H](O[C@H]3C[C@@](C)(OC)[C@@H](O)[C@H](C)O3)[C@@H](C)C(=O)O[C@H](CC)[C@@](C)(O)[C@H](O)[C@@H](C)C(=O)[C@H](C)C[C@@]2(C)O)O[C@H](C)C[C@@H]1N(C)C [ERYTHROMYCIN ETHYLSUCCINATE] then?
**Result** 7.2

**Query** For `NC(N)=Nc1nc(CSCCC(N)=NS(N)(=O)=O)cs1` then?
**Result** 7.3

**Query** For `COC1=CC(=O)C[C@@H](C)[C@]12Oc1c(Cl)c(OC)cc(OC)c1C2=O` then?
**Result** 7.5

// moving on: another record for IP
**Query** Entry COc1ccc2[nH]c([S+]([O-])Cc3ncc(C)c(OC)c3C)nc2c1 (stereo not given) has what IP?
**Result** 8.3

* * *

Organism: Rattus norvegicus
test.name: Open TG-GATES - Regimen: Daily Repeat
Assay type: toxicity, organism-based, Sprague-Dawley
Set-up: regimen Daily Repeat, gender Male, age 6 weeks
cond: in vivo, po, 300 mg/kg, 72 h, tissue Plasma, route gavage, dose level Middle, time 3 day
measured.metric: Cl (meq/L)
Numbers only, in meq/L.

Some compounds with recorded Cl:
**Query** Entry `COC1=CC(=O)C[C@@H](C)[C@]12Oc1c(Cl)c(OC)cc(OC)c1C2=O` has what Cl?
**Result** 104.4

**Query** For `NC(N)=Nc1nc(CSCCC(N)=NS(N)(=O)=O)cs1` then?
**Result** 102.6

Below are 3 compounds. Give each one its Cl.
1. COc1ccc2[nH]c([S+]([O-])Cc3ncc(C)c(OC)c3C)nc2c1 (stereo not given)
2. CCOC(=O)CCC(=O)O[C@H]1[C@H](O[C@@H]2[C@@H](C)[C@H](O[C@H]3C[C@@](C)(OC)[C@@H](O)[C@H](C)O3)[C@@H](C)C(=O)O[C@H](CC)[C@@](C)(O)[C@H](O)[C@@H](C)C(=O)[C@H](C)C[C@@]2(C)O)O[C@H](C)C[C@@H]1N(C)C [ERYTHROMYCIN ETHYLSUCCINATE]
3. CCOc1ccc(NC(=O)CC(C)O)cc1 (stereo not given)

**Result**
1. 100.8
2. 108
3. 104.8

* * *

Please provide measured gamma-GTP for the entries that follow.
Species: Rattus norvegicus
test.name: Open TG-GATES - Regimen: Single
Format: toxicity, organism-based, Sprague-Dawley
Parameters: regimen Single, gender Male, age 6 weeks
cond: in vivo, po, 100 mg/kg, 3 h, tissue Plasma, route gavage, dose level Low
Answers are plain numbers, in IU/L.

**Query** Entry COC1=CC(=O)C[C@@H](C)[C@]12Oc1c(Cl)c(OC)cc(OC)c1C2=O [GRISEOFULVIN] has what gamma-GTP?
**Result** 0.8

**Query** For NC(N)=Nc1nc(CSCCC(N)=NS(N)(=O)=O)cs1 [FAMOTIDINE] then?
**Result** 1

**Query** For COc1ccc2[nH]c([S+]([O-])Cc3ncc(C)c(OC)c3C)nc2c1 (centres undefined) [OMEPRAZOLE] then?
**Result** 0.8

// moving on: another record for gamma-GTP
**Query** Entry CCOC(=O)CCC(=O)O[C@H]1[C@H](O[C@@H]2[C@@H](C)[C@H](O[C@H]3C[C@@](C)(OC)[C@@H](O)[C@H](C)O3)[C@@H](C)C(=O)O[C@H](CC)[C@@](C)(O)[C@H](O)[C@@H](C)C(=O)[C@H](C)C[C@@]2(C)O)O[C@H](C)C[C@@H]1N(C)C [ERYTHROMYCIN ETHYLSUCCINATE] has what gamma-GTP?
**Result** 1

* * *

Please provide measured DBIL for the entries that follow.
Species: Rattus norvegicus
test.name: Open TG-GATES - Regimen: Single
Type: toxicity, organism-based, Sprague-Dawley
Set-up: regimen Single, gender Male, age 6 weeks
cond: in vivo, po, 1000 mg/kg, 24 h, tissue Plasma, route gavage, dose level High

**Query** Entry CC(C)OC(=O)C(C)(C)Oc1ccc(C(=O)c2ccc(Cl)cc2)cc1 [FENOFIBRATE] has what DBIL?
**Result** 0.014 mg/dL

**Query** For COc1ccc2[nH]c([S+]([O-])Cc3ncc(C)c(OC)c3C)nc2c1 (stereo not given) [OMEPRAZOLE] then?
**Result** 0.1 mg/dL

**Query** For CCOC(=O)CCC(=O)O[C@H]1[C@H](O[C@@H]2[C@@H](C)[C@H](O[C@H]3C[C@@](C)(OC)[C@@H](O)[C@H](C)O3)[C@@H](C)C(=O)O[C@H](CC)[C@@](C)(O)[C@H](O)[C@@H](C)C(=O)[C@H](C)C[C@@]2(C)O)O[C@H](C)C[C@@H]1N(C)C [ERYTHROMYCIN ETHYLSUCCINATE] then?
**Result** 0 mg/dL

**Query** For NC(N)=Nc1nc(CSCCC(N)=NS(N)(=O)=O)cs1 [FAMOTIDINE] then?
**Result** 0.078 mg/dL

More entries:
**Query** Entry COC1=CC(=O)C[C@@H](C)[C@]12Oc1c(Cl)c(OC)cc(OC)c1C2=O [GRISEOFULVIN] has what DBIL?
**Result** 0.1 mg/dL

* * *

Organism: Rattus norvegicus
test.name: Open TG-GATES - Regimen: Daily Repeat
Type: toxicity, organism-based, Sprague-Dawley
Parameters: regimen Daily Repeat, gender Male, age 6 weeks
cond: in vivo, po, 1000 mg/kg, […], tissue Plasma, route gavage, dose level High, time 7 day
Please provide measured GLC for the entries that follow.
Answers are plain numbers, in mg/dL.

**Query** Entry COc1ccc2[nH]c([S+]([O-])Cc3ncc(C)c(OC)c3C)nc2c1 (stereo unspecified) has what GLC?
**Result** 187.4

**Query** For CCOc1ccc(NC(=O)CC(C)O)cc1 (stereo unspecified) then?
**Result** 180.8

**Query** For CCOC(=O)CCC(=O)O[C@H]1[C@H](O[C@@H]2[C@@H](C)[C@H](O[C@H]3C[C@@](C)(OC)[C@@H](O)[C@H](C)O3)[C@@H](C)C(=O)O[C@H](CC)[C@@](C)(O)[C@H](O)[C@@H](C)C(=O)[C@H](C)C[C@@]2(C)O)O[C@H](C)C[C@@H]1N(C)C [ERYTHROMYCIN ETHYLSUCCINATE] then?
**Result** 188.6

**Query** For `COC1=CC(=O)C[C@@H](C)[C@]12Oc1c(Cl)c(OC)cc(OC)c1C2=O` then?
**Result** 207

**Query** For `NC(N)=Nc1nc(CSCCC(N)=NS(N)(=O)=O)cs1` then?
**Result** 183.6

More entries:
**Query** Entry CC(C)OC(=O)C(C)(C)Oc1ccc(C(=O)c2ccc(Cl)cc2)cc1 [FENOFIBRATE] has what GLC?
**Result** 178.8

* * *

Species on record: Rattus norvegicus
test.name: Open TG-GATES - Regimen: Daily Repeat
Format: toxicity, organism-based, Sprague-Dawley
Parameters: regimen Daily Repeat, gender Male, age 6 weeks
cond: in vivo, po, 300 mg/kg, […], tissue Blood, route gavage, dose level Middle, time 14 day
measured.metric: APTT (s)
Answers are plain numbers, in s.

**Query** Entry CCOc1ccc(NC(=O)CC(C)O)cc1 (stereo not given) has what APTT?
**Result** 15.9

Below are 4 compounds. Give each one its APTT.
1. CCOC(=O)CCC(=O)O[C@H]1[C@H](O[C@@H]2[C@@H](C)[C@H](O[C@H]3C[C@@](C)(OC)[C@@H](O)[C@H](C)O3)[C@@H](C)C(=O)O[C@H](CC)[C@@](C)(O)[C@H](O)[C@@H](C)C(=O)[C@H](C)C[C@@]2(C)O)O[C@H](C)C[C@@H]1N(C)C [ERYTHROMYCIN ETHYLSUCCINATE]
2. COc1ccc2[nH]c([S+]([O-])Cc3ncc(C)c(OC)c3C)nc2c1 (stereo not given)
3. NC(N)=Nc1nc(CSCCC(N)=NS(N)(=O)=O)cs1
4. COC1=CC(=O)C[C@@H](C)[C@]12Oc1c(Cl)c(OC)cc(OC)c1C2=O

**Result**
1. 22.1
2. 20.3
3. 19.7
4. 19.1
